Provenance of the data: paper PMC7819943

- TARGET_SYSTEM: OsWRKY34 (Oryza sativa, UniProt Q0JBA9 1-250)
- Sequence (Q0JBA9 entry or part of it): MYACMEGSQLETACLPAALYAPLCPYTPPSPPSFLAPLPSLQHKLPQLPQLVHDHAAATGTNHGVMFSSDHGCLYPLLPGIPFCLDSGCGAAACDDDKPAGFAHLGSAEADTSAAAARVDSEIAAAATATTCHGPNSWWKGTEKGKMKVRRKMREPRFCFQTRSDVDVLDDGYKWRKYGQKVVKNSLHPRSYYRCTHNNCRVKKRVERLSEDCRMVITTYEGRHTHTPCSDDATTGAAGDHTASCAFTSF
- ASSAY_EXPLANATION: protein-binding microarray (RPBM); PBS, 2% BSA, 51.3 ng/ul salmon testes DNA, 50 uM zinc acetate, 200 nM TF, 25 C, 1 h; high values mean tight binding
- RECORDED_CONDITIONS: protein: recombinant; tags: N-terminal polyhistidine and DsRed monomer fusion (pET32a); label: CyDye5-dUTP incorporated in the synthesized complementary strand; 3' TTTTT single-stranded linker to array surface; dsDNA, one strand shown
Over roughly 68,000 sequences, “fluorescence intensity (a.u.)” has its median near 9,100; the highest 2% begin near 16,000. This is one part of a sample in which the highest values are shown more often than they occur.

PRIMARY_SEQUENCE	binding signal
TGCCAAGGACTGCATCTTCATCATTGCCTGGGTGTCCACCCGGAGTCACCTAGTGCAG	8700 fluorescence intensity (a.u.)
GTTTGTAACGTATTTTAGCTCGCTTTATAACGGGGCAGTTCGGAGTCACCTAGTGCAG	8160 fluorescence intensity (a.u.)
GTCCAGGTTGGTTTTCATGGGTCGAGTGGCATCAGATGGGCGGAGTCACCTAGTGCAG	10100 fluorescence intensity (a.u.)
TTTCTAGATGTCTACGCGTTATCAGCATGTTGATGTCTACCGGAGTCACCTAGTGCAG	8460 fluorescence intensity (a.u.)
TTCAGAGTATTGTGATCCTTAAATCGAACCGTTGACTCTACGGAGTCACCTAGTGCAG	9490 fluorescence intensity (a.u.)
